Test system: HCT116 human colon cancer cells
protocol-details: Colony formation assay, HCT116 cells
Type: cell-based
test-parameters: Homo sapiens, HCT-116, HCT116 cells, 72 hours with compound, colonies counted after 24 days (Example 9); read-out: IC50
Field: pIC50. Provide a value for each of the compounds that follow.
Answers are plain numbers, as −log10 of the molar value.

c1cc(Nc2ccc(Oc3ccc(Nc4ccncc4)cc3)cc2)ccn1 ... 5.37

Shifting focus to the compound that follows.
Would you mind telling me what pIC50 value was observed for c1ccc2c(Nc3ccc(Oc4ccc(Nc5ccnc6ccccc56)cc4)cc3)ccnc2c1 [Compound D245B] ?
6.91

###

protocol-details: Solubility in solvents and buffers
Type: physicochemical
test-parameters: PEG-400, 25 °C, organic solvent or mixture, PEG-400; heating to 100° C. was required; read-out: Solubility (mg/ml), 25° C.
parameter: solubility

Would you mind telling me what solubility value was observed for c1ccc2c(Nc3ccc(Oc4ccc(Nc5c6ccccc6nc6ccccc56)cc4)cc3)c3ccccc3nc2c1 [Compound D11B] ?
~12 mg/mL
